- Test system: HeLa Kyoto;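 note: synchronized HeLa Kyoto cells, proteins quantified by TMT10plex mass spectrometry, three biological replicates, mitosis taken 0.5 h after nocodazole release, G1/S directly after double thymidine block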
- EXPERIMENTAL DETAILS: thermal stability score vs G1/S (z-score of summed log2 fold changes over temperatures); higher = more thermally stable than in G1/S
- ASSAY CONDITIONS: cell cycle stage: mitosis
RECORDED METRIC: thermal stability score
Form: value (number only, do not type unit).

Data request: Supply measured thermal stability score of MSGDTCLCPASGAKPKLSGFKGGGLGNKYVQLNVGGSLYYTTVRALTRHDTMLKAMFSGRMEVLTDKEGWILIDRCGKHFGTILNYLRDDTITLPQNRQEIKELMAEAKYYLIQGLVNMCQSALQDKKDSYQPVCNIPIITSLKEEERLIESSTKPVVKLLYNRSNNKYSYTSNSDDHLLKNIELFDKLSLRFNGRVLFIKDVIGDEICCWSFYGQGRKLAEVCCTSIVYATEKKQTKVEFPEARIYEETLNVLLYETPRVPDNSLLEATSRSRSQASPSEDEETFELRDRVRRIHVKRYSTYDDRQLGHQSTHRD [TNFAIP1] in your reply.
Data returned: -0.17

Data request: Supply measured thermal stability score of MAAVDSFYLLYREIARSCNCYMEALALVGAWYTARKSITVICDFYSLIRLHFIPRLGSRADLIKQYGRWAVVSGATDGIGKAYAEELASRGLNIILISRNEEKLQVVAKDIADTYKVETDIIVADFSSGREIYLPIREALKDKDVGILVNNVGVFYPYPQYFTQLSEDKLWDIINVNIAAASLMVHVVLPGMVERKKGAIVTISSGSCCKPTPQLAAFSASKAYLDHFSRALQYEYASKGIFVQSLIPFYVATSMTAPSNFLHRCSWLVPSPKVYAHHAVSTLGISKRTTGYWSHSIQFLFAQYMPEWLWVWGANILNRSLRKEALSCTA [HSDL1] in your reply.
Data returned: -2.08
